Tested on: ATP;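 note: ATP exposure 15 min at 22 °C before imaging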
MEASUREMENT DESCRIPTION: switch fluorescence ratio, 500 uM ATP over buffer (Cy3 cluster intensity, sum of 5 cycles each) (fold (ratio)); higher = stronger signal-on switching upon ATP binding; sequences stand for … in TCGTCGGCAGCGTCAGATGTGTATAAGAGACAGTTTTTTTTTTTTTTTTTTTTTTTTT…TC
MEASUREMENT CONDITIONS: aptamer strand: ATP DNA aptamer (quencher-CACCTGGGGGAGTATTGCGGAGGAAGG + anchor), 100 nM annealed; ATP concentration: 500 uM
A collection of sequences and their measured switch fluorescence ratio
READOUT KIND: switch fluorescence ratio

{"columns": ["RESIDUE CODES", "READOUT KIND", "RECORDED VALUE"],
 "data": [
  ["ATGACGCGGA", "switch fluorescence ratio", 1.05],
  ["ATGGGTGAAA", "switch fluorescence ratio", 0.987],
  ["GACTGGTATT", "switch fluorescence ratio", 0.991],
  ["TTTTGTTACC", "switch fluorescence ratio", 1.02],
  ["GATTTGTTGG", "switch fluorescence ratio", 0.982],
  ["AAAACCAGGG", "switch fluorescence ratio", 1.08],
  ["CTGTGGATGC", "switch fluorescence ratio", 1.09],
  ["TAAGTGTTTT", "switch fluorescence ratio", 0.994],
  ["GTGGACTTCG", "switch fluorescence ratio", 1.02],
  ["AGCGGTTAAT", "switch fluorescence ratio", 0.984],
  ["TAAAACCCGC", "switch fluorescence ratio", 1.05],
  ["CACGGATGGT", "switch fluorescence ratio", 1.01],
  ["GCTATGGAGC", "switch fluorescence ratio", 1.06],
  ["TAAATTTTGT", "switch fluorescence ratio", 1.02],
  ["AAGCTGTTAT", "switch fluorescence ratio", 1.16],
  ["TGAATTGGGA", "switch fluorescence ratio", 1.02],
  ["TTTGGAAGTT", "switch fluorescence ratio", 0.982]
]}
